Reference source for all entries: the supplement of paper PMC12645437

# Target: T1, CRBN, Q96SW2;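 also: pooled lentiviral library of zinc finger degron-EGFP fusions in mCherry-positive Jurkat cells, FACS-sorted after compound exposure, with degron abundance counted by next-generation sequencing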
# T1 chain: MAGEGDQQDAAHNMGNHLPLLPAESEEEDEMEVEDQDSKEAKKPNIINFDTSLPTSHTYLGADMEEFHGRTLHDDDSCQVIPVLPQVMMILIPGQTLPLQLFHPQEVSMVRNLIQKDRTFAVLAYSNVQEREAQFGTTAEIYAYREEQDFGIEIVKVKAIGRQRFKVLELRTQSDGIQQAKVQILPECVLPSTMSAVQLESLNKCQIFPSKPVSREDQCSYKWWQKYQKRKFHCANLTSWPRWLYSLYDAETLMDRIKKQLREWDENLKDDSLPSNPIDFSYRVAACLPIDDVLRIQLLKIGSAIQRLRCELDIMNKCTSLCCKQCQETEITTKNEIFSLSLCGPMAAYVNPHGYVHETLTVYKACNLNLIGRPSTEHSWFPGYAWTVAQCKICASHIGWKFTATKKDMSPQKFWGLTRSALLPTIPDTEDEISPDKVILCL
# Procedure details: log2 fold change of degron read counts, EGFP-low vs EGFP+ sorted cells (limma voom), compound-induced degradation; higher = more compound-induced degradation of the degron-EGFP fusion; degrons are variants of IKZF1/3 zinc finger 2; compound dose not given here
# Experimental conditions: Jurkat; 18 h; compound: thalidomide
Whole data set: some 8,300 sequences, median “log2 fold change of degron read counts, EGFP-low vs EGFP+ sorted cells (limma voom), compound-induced degradation” near -1.1, cut for the highest 2% near 3.2. This excerpt belongs to a sample that is enriched for the highest values.
If the reported log2 fold change of degron read counts equals or exceeds 1, assign YES. If not, assign NO.

{"columns": ["Chain sequence", "Group label"],
 "data": [
  ["LNCPICGFHCTQKGNLLRHIKL [46L_47N_49P_50I_52G_53F_54H_55C_67L_, Q9UKT9]", "YES"],
  ["LSCPICGFHCTQKGNLLRHIKL [46L_47S_49P_50I_52G_53F_54H_55C_67L_, Q9UKT9]", "YES"],
  ["LACPICGFNCTQKGNLLRHIKL [46L_47A_49P_50I_52G_53F_54N_55C_67L_, Q9UKT9]", "YES"],
  ["FGCNICGACFTQKGNLLRHIKL [46F_47G_49N_50I_52G_53A_54C_55F_67L_, Q9UKT9]", "NO"],
  ["FTCPICGAKFTQKGNLLRHIKL [46F_47T_49P_50I_52G_53A_54K_55F_67L_, Q9UKT9]", "YES"],
  ["LDCPICGFNCTQKGNLLRHIKL [46L_47D_49P_50I_52G_53F_54N_55C_67L_, Q9UKT9]", "NO"],
  ["LVCPICGFHCTQKGNLLRHIKL [46L_47V_49P_50I_52G_53F_54H_55C_67L_, Q9UKT9]", "YES"],
  ["FMCNICGAKFTQKGNLLRHIKL [46F_47M_49N_50I_52G_53A_54K_55F_67L_, Q9UKT9]", "NO"],
  ["LWCPICGFHCTQKGNLLRHIKL [46L_47W_49P_50I_52G_53F_54H_55C_67L_, Q9UKT9]", "YES"],
  ["LHCPICGFHCTQKGNLLRHIKL [46L_47H_49P_50I_52G_53F_54H_55C_67L_, Q9UKT9]", "YES"],
  ["LMCPICGFHCTQKGNLLRHIKL [46L_47M_49P_50I_52G_53F_54H_55C_67L_, Q9UKT9]", "YES"],
  ["LTCPICGFHCTQKGNLLRHIKL [46L_47T_49P_50I_52G_53F_54H_55C_67L_, Q9UKT9]", "YES"],
  ["FGCPICGAKFTQKGNLLRHIKL [46F_47G_49P_50I_52G_53A_54K_55F_67L_, Q9UKT9]", "YES"],
  ["LQCPICGFHCTQKGNLLRHIKL [46L_47Q_49P_50I_52G_53F_54H_55C_67L_, Q9UKT9]", "YES"]
]}
